These entries and their values trace back to PubChem BioAssay (NCATS).

Assay: qHTS Assay for Identifying Gametocytocidal Compounds (AID 743244);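 further: on the % scale 0 is the no-effect control and ±100 the full control effect; actives lower the fluorescent signal which means gametocytes are killed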
Conditions: P. falciparum 3D7 stage III-V gametocytes, alamarBlue, 72 h; hits give low values
Results filed as inconclusive are left out.
readout: max response (%)

COc1ccc(NC(=O)/C=C/c2ccc(Cl)cc2)cc1; 30.8
c1ccc2sc(SN3CCOCC3)nc2c1; -2.78
O=C(O)Cc1cccc(-c2cc(CCCCCCc3ccc(O[C@H]4O[C@H](CO)[C@@H](O)[C@H](O)[C@@H]4O)c(-c4cccc(CC(=O)O)c4)c3)ccc2O[C@H]2O[C@H](CO)[C@@H](O)[C@H](O)[C@@H]2O)c1; 36.1
CNc1ncnc2c1ncn2[C@@H]1O[C@H](CO)[C@@H](O)[C@H]1O; 31.8
COc1cccc(C(=O)NCCN2CCN(c3ccc(Cl)cc3)CC2)c1; 13.6
CO/N=C(\C(=O)N[C@@H]1C(=O)N2C(C(=O)O)=C(COC(C)=O)CS[C@H]12)c1csc(N)n1; 5.62
CSc1ccccc1N1CCN(CCCCCC(=O)NC2CCCc3ccccc32)CC1 (stereo unspecified); 6.9
O=C(O)CCCC[C@@H]1CCSS1; 7.49
O=C(O)CC[C@@H](C(=O)O)N1C(=O)c2ccccc2C1=O; -10.9
N#C/C(=C\c1ccc(O)c(O)c1)C(=O)c1ccc(O)c(O)c1; 10.5
COC(=O)C1=C(C)NC(C)=C(C(=O)OCC(C)C)C1c1ccccc1[N+](=O)[O-] (stereo unspecified); 0.875
